molecular target: CDK7/CycH/MAT1 (Homo sapiens); construct: purchased ProQinase GmbH; test: In vitro kinase assay (PKLight luciferase ATP readout), CDK7; assay type: biochemical; conditions: ratio of CDK1 IC50 to CDK7 IC50
Sequence (P50613 whole entry): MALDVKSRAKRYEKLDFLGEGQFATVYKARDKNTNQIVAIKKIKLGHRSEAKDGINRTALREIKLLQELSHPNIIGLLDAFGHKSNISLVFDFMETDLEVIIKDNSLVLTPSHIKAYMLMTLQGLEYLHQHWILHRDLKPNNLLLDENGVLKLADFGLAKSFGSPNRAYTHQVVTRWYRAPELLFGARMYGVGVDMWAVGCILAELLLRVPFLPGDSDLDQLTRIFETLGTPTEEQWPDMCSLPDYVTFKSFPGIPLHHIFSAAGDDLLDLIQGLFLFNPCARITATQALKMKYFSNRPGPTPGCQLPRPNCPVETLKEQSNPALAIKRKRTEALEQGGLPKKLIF
Sequence (P51946 whole entry partner): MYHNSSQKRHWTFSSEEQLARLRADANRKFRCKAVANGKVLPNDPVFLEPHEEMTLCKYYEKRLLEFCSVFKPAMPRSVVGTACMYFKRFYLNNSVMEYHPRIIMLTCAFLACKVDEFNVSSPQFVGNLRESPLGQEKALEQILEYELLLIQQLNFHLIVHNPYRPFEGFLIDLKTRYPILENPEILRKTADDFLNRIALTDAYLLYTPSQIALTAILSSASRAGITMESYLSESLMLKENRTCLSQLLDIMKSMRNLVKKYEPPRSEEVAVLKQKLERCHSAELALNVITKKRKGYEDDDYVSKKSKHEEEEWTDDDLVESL
Sequence (P51948 whole entry partner): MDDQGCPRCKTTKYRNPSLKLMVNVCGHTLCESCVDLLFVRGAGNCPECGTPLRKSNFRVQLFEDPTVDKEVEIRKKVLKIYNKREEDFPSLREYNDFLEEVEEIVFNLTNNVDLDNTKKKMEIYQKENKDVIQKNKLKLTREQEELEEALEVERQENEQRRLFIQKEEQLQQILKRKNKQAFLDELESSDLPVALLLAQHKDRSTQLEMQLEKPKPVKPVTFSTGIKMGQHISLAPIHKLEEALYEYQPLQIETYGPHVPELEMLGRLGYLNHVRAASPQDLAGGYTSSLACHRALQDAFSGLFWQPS
Where a name gives a salt, the structure may show the parent alone.
metric: Selectivity CDK1/CDK7 (fold)
Give bare numbers, in fold.

{"columns": ["molecule", "targetOrTestSystem", "Selectivity CDK1/CDK7, fold"],
 "data": [
  ["CC(C)c1cnn2c(NCc3ccccc3)cc(N[C@H]3CNCC3O)nc12 (stereo in doubt) [PPDA-015, hydrochloride]", "CDK7/CycH/MAT1 (Homo sapiens)", 146]
]}

Working through the 2 molecules below one at a time, give Selectivity CDK1/CDK7 for each.
1. CC(C)c1cnn2c(NCC3CCCCC3)cc(N[C@H]3CNC[C@H]3O)nc12
2. CC(C)c1cnn2c(NCc3ccccc3)cc(N[C@H]3CNCC[C@@]3(O)CO)nc12

5.9
5.6
